- System: NCI-H522 lung
- testMethodNotes: NCI tumour cell line growth inhibition, 48 h
Parameter: TGI. Scope: all listed entries.

compound	TGI
NC(=O)c1[nH]cnc1/N=N/SCC(N)C(=O)O (stereo unspecified)	> 100 µM
COc1ccccc1S(=O)(=O)Nc1ccc2c(c1)CN(C)C(=O)N2	> 91.7 µM
CCOC(=O)c1cnc(-n2[nH]c3c(c2=O)CCCC3)[nH]c1=O	> 100 µM
O=C(NO)C(=O)Nc1ccc(Cl)cc1[N+](=O)[O-]	> 100 µM
O=C(O)C12CCCC(CCC1)C2	> 100 µM
O=C(Oc1ccccc1Cl)c1ccccc1Nc1ccnc(C(F)(F)F)c1	> 70.3 µM

---

- Tested on: OVCAR-4 ovarian
- testMethodNotes: NCI tumour cell line growth inhibition, 48 h

compound	assayedTarget	TGI
Cc1ccc(S(=O)(=O)NC(=O)Nc2ccc(S(N)(=O)=O)cc2S(N)(=O)=O)cc1	OVCAR-4 ovarian	> 100 µM
O=C1OCc2cccc3c2-c2c1cccc2C(=O)OC3	OVCAR-4 ovarian	> 100 µM
CN1CCC23c4c5ccc(O)c4OC2c2[nH]c4ccccc4c2CC3(O)C1C5 (stereo not given)	OVCAR-4 ovarian	> 100 µM
C=CCOC(=O)[C@@H]1C[C@@H](OC(C)(C)C)CN1C(=O)[C@@H]1[C@H]2OC(C)(C)O[C@H]2CN1C(=O)OCC1c2ccccc2-c2ccccc21	OVCAR-4 ovarian	34.1 µM
COC(OC)[C@@H](C)[C@H](O)[C@](C)(O)C1OC(C)(C)OC(C(C)C=C(C)C)C1C (stereo not given in full)	OVCAR-4 ovarian	> 100 µM
COC(=O)C(Cc1nc2ccc(Cl)cc2[nH]c1=O)/C(=N/NC(N)=O)C(=O)Nc1ccc(Cl)cc1 (stereo not given)	OVCAR-4 ovarian	> 100 µM
C/C=C/C(=O)N1C(=O)OC[C@@H]1c1ccccc1	OVCAR-4 ovarian	45.3 µM
N#CC(Cc1ccccc1Br)N(CCC1=CCCCC1)C(c1ccccc1)c1ccccc1 (stereo not given)	OVCAR-4 ovarian	> 100 µM
C=CCN(C)CN(C)c1nc(N(C)C)nc(N(C)C)n1	OVCAR-4 ovarian	> 100 µM
COC(=O)c1ccccc1/C=C1\Cc2cc(C)c(C)cc2C1=O	OVCAR-4 ovarian	> 100 µM
COc1ccc([C@@]23OC[C@@H]4[C@@H](OC[C@@H]42)c2cc(OC)c(OC)cc23)cc1OC	OVCAR-4 ovarian	> 100 µM
O=C(O)C1(Cc2cccc(Nc3nccs3)n2)CCC(Oc2cccc(Cl)c2F)CC1 (stereo not given)	OVCAR-4 ovarian	> 100 µM
COc1ccc(C(=O)/C=C/c2ccc(OCC(=O)N3CCN(c4ccccc4)CC3)cc2)cc1	OVCAR-4 ovarian	> 100 µM
Cc1cc(C)nc(SC2=C(Nc3cccc(Cl)c3C)C(=O)N(Cc3ccccc3)C2=O)n1	OVCAR-4 ovarian	> 160 µM
Cc1ccc(S(=O)(=O)N2CCCC2C(=O)O[C@H]2CC[C@H]3CC=C[C@H]32)cc1 (stereo not given in full)	OVCAR-4 ovarian	> 100 µM
COc1cc2cc(C(=O)N3CC(CCl)c4ccccc43)[nH]c2c(OC)c1OC (stereo not given)	OVCAR-4 ovarian	> 100 µM
COc1cc2nc3cc([N+](=O)[O-])ccc3c(NCCCNCC(C)(C)O)c2cc1OC	OVCAR-4 ovarian	0.777 µM
Nc1nnc(Cn2c(-c3ccccc3)nc3ccc(Br)cc3c2=O)s1	OVCAR-4 ovarian	> 100 µM
Nc1nc(N)c2nc(CNc3ccc(C(=O)NC(CCCNC(=O)c4ccccc4C(=O)O)C(=O)O)cc3)cnc2n1 (stereo not given)	OVCAR-4 ovarian	> 100 µM
C[C@]12[C@@H]3CC[C@H]1[C@@H](OC(=O)Nc1cc([N+](=O)[O-])cc([N+](=O)[O-])c1)C(=O)N2CC3	OVCAR-4 ovarian	> 100 µM
COC(=O)[C@@H]1C[C@@H]2c3ccccc3N(S(=O)(=O)c3ccccc3)[C@@H]2N1C(=O)OC	OVCAR-4 ovarian	> 100 µM
COc1ccccc1S(=O)(=O)Nc1ccc2c(c1)CN(C)C(=O)N2	OVCAR-4 ovarian	> 100 µM
CCS(=O)(=O)CCn1cnc2c1c(=O)n(C)c(=O)n2C	OVCAR-4 ovarian	> 100 µM
O=C1CC(=O)N(CCc2ccccc2)S(=O)(=O)N1CCc1ccccc1	OVCAR-4 ovarian	44.6 µM
N#CC1(C=O)c2ccccc2C=CN1C(=O)c1ccccc1 (stereo not given)	OVCAR-4 ovarian	> 100 µM
NNc1[nH]c(=S)[nH]c1C(N)=O	OVCAR-4 ovarian	> 100 µM
N#Cc1ccc(C(c2ccc(C#N)cc2)n2cncn2)cc1	OVCAR-4 ovarian	> 5000 µM
COc1cc(N(CCC#N)CCC#N)ccc1/C(N=Nc1ccccc1)=N/NC(=O)c1cc(Br)ccc1O	OVCAR-4 ovarian	64.4 µM
c1ccc(-c2nnc(-c3nsc4ccccc34)o2)cc1	OVCAR-4 ovarian	> 100 µM
CN(C)c1ccc(/C=N\N2C(=O)c3ccccc3C2=O)cc1	OVCAR-4 ovarian	> 100 µM
